Experiment: Solubility in 7/3 v/v toluene/MeOH
Format: physicochemical
Conditions: 25 °C, organic solvent or mixture, 25 °C, read-out: Solubility
reported-property: solubility (µg/mL)

{"compound": "COc1cc(Nc2nn([C@H]3COCC[C@@H]3C#N)cc2C(N)=O)cc(F)n1 [Form 1]", "test-result": 3400}

###

Test: Solubility in 7/3 v/v toluene/MeOH
Assay type: physicochemical
Details: 40 °C, organic solvent or mixture, 40 °C, read-out: Solubility

{"compound": "COc1cc(Nc2nn([C@H]3COCC[C@@H]3C#N)cc2C(N)=O)cc(F)n1 [Form 1]", "solubility, µg/mL": 6600}

src = patent US12018020B2
